Source listed as PubChem BioAssay (NCI).

test system: MALME-3M melanoma; assay: NCI tumour cell line growth inhibition, 48 h; in the data active = GI50 below about 0.43 µM; inactive = the rest
Response enum: yes for active, no for inactive

> print(dat)
                                   molecule  class.assignment
1  CN1/C(=C/C=C/c2n(Cc3ccc4ccccc4c3)c(Cl)c(Cl)[n+]2Cc2ccc3ccccc3c2)Oc2ccccc21               yes
2  O=C(Nc1ccc(Cl)cc1)N1CCN(c2ccc3nncn3n2)CC1                no
3  Nc1nc(N)c(-c2ccc(Cl)c(Cl)c2)c(CP(Cl)(Cl)(Cl)Br)n1                no
4  OCC1OC(n2cnc3c(NCc4ccccc4O)ncnc32)C(O)C1O (stereo unspecified)                no
5       Cc1ccc(NC2=CC(=O)C(=O)c3ccccc32)cc1                no
6  Cn1cc(-c2nc(-c3cn(C)c4ncccc34)cs2)c2ccccc21                no

Data request: Hi, do you know how `CCOC(=O)c1cc(C(=O)c2cc(OC)c(OC)c(OC)c2)n2ccc(-c3cc[n+](CC(=O)c4cc(OC)c(OC)c(OC)c4)cc3)cc12` came out in this test?
Data returned: no

Data request: Dear all, I need the recorded test outcome for CC(C)(C)OC(=O)N1Cc2cc3ccccc3nc2C1CO (stereo unspecified) , thank you.
Data returned: no

Data request: Each molecule tested received a call. Report the one for `CCOC(=O)CCSC1=CC(=O)c2nc3ccccc3c3ccnc1c23` .
Data returned: no

Data request: Please let me know the test result on file for `COc1cccc(-c2nn(-c3ccccc3)cc2-c2ccnc(NCCCNS(=O)(=O)c3ccc(C(F)(F)F)cc3)c2)c1` .
Data returned: no
